target: Interleukin-1 receptor-associated kinase 4 (Homo sapiens); note: in the data inactive means no Kd found up to 30 µM
Sequence (Q9NWZ3 whole entry): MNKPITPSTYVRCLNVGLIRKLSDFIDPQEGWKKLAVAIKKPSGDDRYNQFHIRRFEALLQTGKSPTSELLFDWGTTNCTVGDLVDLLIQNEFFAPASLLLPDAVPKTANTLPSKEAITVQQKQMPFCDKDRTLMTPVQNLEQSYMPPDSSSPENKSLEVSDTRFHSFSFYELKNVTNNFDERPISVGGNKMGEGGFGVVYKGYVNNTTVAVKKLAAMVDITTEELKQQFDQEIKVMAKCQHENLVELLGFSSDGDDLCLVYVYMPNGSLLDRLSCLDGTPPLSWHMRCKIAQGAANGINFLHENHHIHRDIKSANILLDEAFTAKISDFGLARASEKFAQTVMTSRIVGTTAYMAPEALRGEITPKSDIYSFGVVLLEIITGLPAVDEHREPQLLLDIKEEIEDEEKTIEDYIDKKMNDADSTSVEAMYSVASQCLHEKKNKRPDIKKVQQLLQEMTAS
The source made the active and inactive calls.
Output constraint: value belongs to true for active, false for inactive

Task: Per the assay record, what outcome was assigned to COc1cc(Nc2ncc(F)c(Nc3ccc4c(n3)N(COP(=O)(O)O)C(=O)C(C)(C)O4)n2)cc(OC)c1OC ?
Result: false

Okay, next one:
Task: Per the assay record, what outcome was assigned to COc1cccc(Nc2ncnn3ccc(CN4CC[C@@H](N)[C@H](O)C4)c23)c1 ?
Result: false

---

biological target: Cyclin-dependent kinase 4 (Homo sapiens, UniProt P11802); note: in the data inactive means no Kd found up to 30 µM
Sequence (P11802 whole entry): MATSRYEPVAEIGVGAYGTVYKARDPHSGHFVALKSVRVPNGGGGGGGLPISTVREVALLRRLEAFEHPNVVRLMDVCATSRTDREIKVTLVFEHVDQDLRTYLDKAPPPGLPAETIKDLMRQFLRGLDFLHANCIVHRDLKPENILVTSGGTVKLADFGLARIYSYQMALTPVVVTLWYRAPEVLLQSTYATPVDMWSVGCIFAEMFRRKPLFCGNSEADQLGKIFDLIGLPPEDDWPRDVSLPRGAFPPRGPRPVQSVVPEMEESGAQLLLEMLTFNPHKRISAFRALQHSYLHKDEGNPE
The source made the active and inactive calls.
Output constraint: value belongs to class 1 (active), class 0 (inactive)

Known results for molecules:
Task: Per the assay record, what outcome was assigned to COc1cccc2cc(-c3nc([C@H]4CC[C@H](C(=O)O)CC4)n4ncnc(N)c34)[nH]c12 ?
Result: class 0

Task: Per the assay record, what outcome was assigned to O=c1[nH]c([C@@H]2CCCN2)nc2c1oc1ccc(Cl)cc12 ?
Result: class 0

Task: Per the assay record, what outcome was assigned to Cc1cc(Nc2nc(N[C@@H](C)c3ncc(F)cn3)ncc2Cl)n[nH]1 ?
Result: class 0

Task: Per the assay record, what outcome was assigned to COc1cc2nccc(Oc3ccc(NC(=O)C4(C(=O)Nc5ccc(F)cc5)CC4)cc3)c2cc1OC [CABOZANTINIB] ?
Result: class 0

Task: Per the assay record, what outcome was assigned to COc1cc2ncnc(Nc3ccc(O)cc3)c2cc1OC ?
Result: class 0

Task: Per the assay record, what outcome was assigned to CCc1nc(C(N)=O)c(Nc2ccc(N3CCC(N4CCN(C)CC4)CC3)c(OC)c2)nc1NC1CCOCC1 ?
Result: class 1

Task: Per the assay record, what outcome was assigned to C[C@@H]1COC(Nc2ccc3ncnc(Nc4ccc(OCc5nccs5)c(Cl)c4)c3c2)=N1 ?
Result: class 0

Okay, next one:
Task: Per the assay record, what outcome was assigned to CC1(COc2ccc3c(c2)ncn3-c2ccc3cccc(N4CCC(N)CC4)c3n2)COC1 ?
Result: class 0

The measurements presented in this section are drawn from ChEMBL document CHEMBL3991601.
